molecular target: Somatostatin receptor type 3 (Mus musculus); format: cell-based, CHO
Sequence (P30935 whole entry): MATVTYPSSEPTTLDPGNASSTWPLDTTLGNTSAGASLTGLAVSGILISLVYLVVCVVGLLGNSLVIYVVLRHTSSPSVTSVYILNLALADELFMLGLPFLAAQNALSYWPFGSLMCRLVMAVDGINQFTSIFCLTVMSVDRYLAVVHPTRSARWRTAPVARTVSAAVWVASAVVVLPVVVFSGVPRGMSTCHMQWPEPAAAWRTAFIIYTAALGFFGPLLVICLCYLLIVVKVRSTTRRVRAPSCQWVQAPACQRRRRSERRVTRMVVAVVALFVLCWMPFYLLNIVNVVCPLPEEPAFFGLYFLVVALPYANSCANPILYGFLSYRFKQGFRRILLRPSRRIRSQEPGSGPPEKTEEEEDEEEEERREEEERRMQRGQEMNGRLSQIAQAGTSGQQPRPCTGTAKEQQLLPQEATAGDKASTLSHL
Entries and their measured pIC50 follow.
// pIC50: -log10(molar conc.)

Use the examples below as a reference point.
compound: Cn1cc(C2(c3cc(C(=O)O)ccn3)N[C@@H](c3nc(-c4ccc(F)cc4)c[nH]3)Cc3c2[nH]c2ccccc32)cn1 (single isomer, unassigned; 3A)
pIC50: 8.76
--
compound: CCOC(=O)c1cccc(C2(c3cnn(C)c3)N[C@@H](c3nc(-c4ccc(F)cc4)c[nH]3)Cc3c2[nH]c2ccccc32)n1 (single isomer, unassigned; 6A)
pIC50: 9.39

Request: Input CCOC(=O)c1cccc(C2(c3cnn(C)c3)N[C@@H](c3nc(-c4ccc(F)cc4)c[nH]3)Cc3c2[nH]c2ccccc32)n1 (single isomer, unassigned; 6B) , output reported pIC50.
Response: 9.15

Request: Give the measured pIC50 for CCOC(=O)c1ccnc(C2(c3cnn(C)c3)N[C@@H](c3nc(-c4ccc(F)cc4)c[nH]3)Cc3c2[nH]c2ccccc32)c1 (single isomer, unassigned)
Response: 9.39

Request: Return reported pIC50. Input compound: Cn1cc(C2(c3cccc(C(=O)O)n3)N[C@@H](c3nc(-c4ccc(F)cc4)c[nH]3)Cc3c2[nH]c2ccccc32)cn1 (single isomer, unassigned; 2A)
Response: 8.41
